Target: SHP2 (Homo sapiens)
Construct: SHP2 (full length, diluted to 100 pM final concentration in reaction buffer, BPS bioscience, US); purchased BPS bioscience, US
Sequence (Q06124 whole entry): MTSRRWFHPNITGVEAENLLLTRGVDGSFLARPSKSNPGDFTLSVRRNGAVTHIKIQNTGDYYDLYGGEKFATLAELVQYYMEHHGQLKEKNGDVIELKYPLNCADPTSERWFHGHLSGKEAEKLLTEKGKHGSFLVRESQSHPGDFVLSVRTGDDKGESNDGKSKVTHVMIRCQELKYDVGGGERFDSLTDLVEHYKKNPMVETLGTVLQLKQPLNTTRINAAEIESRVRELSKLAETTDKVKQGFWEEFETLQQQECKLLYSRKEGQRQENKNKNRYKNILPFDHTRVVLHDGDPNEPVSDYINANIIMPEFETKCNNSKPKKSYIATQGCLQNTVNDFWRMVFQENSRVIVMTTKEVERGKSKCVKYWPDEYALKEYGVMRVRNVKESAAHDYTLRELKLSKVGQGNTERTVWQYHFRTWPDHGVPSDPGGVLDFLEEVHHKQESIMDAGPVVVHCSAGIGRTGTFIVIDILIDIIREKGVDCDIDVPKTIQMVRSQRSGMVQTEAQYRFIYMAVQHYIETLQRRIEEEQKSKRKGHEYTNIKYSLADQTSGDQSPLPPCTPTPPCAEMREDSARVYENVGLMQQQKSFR
Test: Phosphatase assay (PTPase assay, DiFMUP substrate)
Assay type: biochemical
Settings: read-out: PTPase assay (IC50); full length SHP2 100 pM activated with SHP2 activating peptide, DiFMUP 80 µM, 2 hours
Description: IC50 values were measured using 6,8-difluoro-4-methylumbelliferyl phosphate (DiFMUP) as a substrate. The reaction was performed in a 384-well plate, and fluorescence measurement values were obtained using an EnVision plate reader from PerkinElmer. […] DiFMUP (80 µM) was added to the reaction and incubated for a total of 2 hours to allow for the reaction to proceed. Thereafter, fluorescence (340 nm excitation, 450 nm emission) values were measured. […]
measured-attribute: IC50

Task: Identify the reported IC50 for the following entry. Cn1cnc2ccc(Sc3cnc(N4CCC5(CC4)Cc4ncsc4[C@H]5N)cn3)c(Cl)c2c1=O
Output: < 3 nM
